Target: T1, human neurotensin receptor type 1 (hNTS1R), endogenous in HT-29 colon carcinoma cells (human (endogenous in HT-29), UniProt P30989 1-418)
T1 construct: human neurotensin receptor type 1 (hNTS1R), endogenously expressed in HT-29 colon carcinoma cells; also called HT-29 cells; source: endogenous, intact HT-29 colon carcinoma cells
T1 sequence (P30989 whole entry): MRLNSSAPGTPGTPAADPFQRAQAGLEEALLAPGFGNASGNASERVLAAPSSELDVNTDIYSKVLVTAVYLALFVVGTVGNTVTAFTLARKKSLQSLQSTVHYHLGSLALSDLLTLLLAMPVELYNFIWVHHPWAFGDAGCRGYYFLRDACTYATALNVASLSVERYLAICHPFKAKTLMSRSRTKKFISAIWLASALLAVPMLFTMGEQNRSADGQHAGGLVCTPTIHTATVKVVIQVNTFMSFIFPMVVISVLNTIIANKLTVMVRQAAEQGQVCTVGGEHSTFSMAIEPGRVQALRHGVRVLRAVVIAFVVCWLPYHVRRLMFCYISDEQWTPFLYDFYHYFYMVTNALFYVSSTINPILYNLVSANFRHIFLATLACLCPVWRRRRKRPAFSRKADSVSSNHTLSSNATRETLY
Assay: radioligand binding; competition with [^3H]UR-MK300 at intact hNTS1R-expressing HT-29 cells, 23 ± 1 °C; pIC50 converted to pKi (Cheng–Prusoff)
Settings: one partner purified
Starred links: 1 amine or outer side, 2 acyl side, 3 side chain; linkers in the order of their positions; H or OH if unused. Non-standard residues stand in square brackets, D forms with d. No end group written: not given here. *: point of attachment. 5‑TAMRA = CN(C)c1ccc2c(-c3ccc(C(=O)*)cc3C(=O)[O-])c3ccc(N(C)C)cc3[o+]c2c1; Propanoyl(3-triazol-4-yl) = O=C(CCc1cn([*:1])nn1)[*:2]; Pent4ynoyl = C#CCCC(=O)*
endpoint: pKi
API: returns pKi as number; meaning -log10 of concentration in mol/L.

>  <binder>
XPRRPYIL (N-terminal N^α-(pent-4-ynoyl); position 6 (X) = 2-(piperidin-4-yl)-Gly (pipGly); Arg8 = N^ω-[(4-aminobutyl)aminocarbonyl]Arg; position 11 = β,β-dimethyl-D-Tyr)

>  <endpoint>
pKi

>  <measuredResult>
6.85

$$$$

Given the binder {5‑TAMRA-Propanoyl(3-triazol-4-yl)}-[dK](propanoyl)PRRPYIL (neurotensin NT(6–13) with D-Lys at position 6, printed in three-letter code; numbers count on: the mature neurotensin; also called peptide 15; source: synthetic peptide (from 8 by propionylation and click reaction, preparative HPLC)) [5-TAMRA-labeled, propionylated NT(6–13) derivative 15] , what is its reported pKi?
8.52

Given the binder XPRRPYIL (N-terminal N^α-(pent-4-ynoyl); position 6 (X) = 2-(piperidin-4-yl)-Gly (pipGly); Arg8 = N^ω-[(4-aminobutyl)aminocarbonyl]Arg) , what is its reported pKi?
9.19

Given the binder XPRRPYIL (N-terminal N^α-(pent-4-ynoyl); position 6 (X) = 2-(piperidin-4-yl)-Gly (pipGly); Arg8 = N^ω-[(4-aminobutyl)aminocarbonyl]Arg; position 11 = β,β-dimethyl-L-Tyr) , what is its reported pKi?
8.96

Given the binder {5‑TAMRA-Propanoyl(3-triazol-4-yl)}-K(propanoyl)PRRPYIL (neurotensin NT(6–13), printed in three-letter code; numbers count on: the mature neurotensin; also called peptide 14; source: synthetic peptide (from 7 by propionylation and click reaction, preparative HPLC)) [5-TAMRA-labeled, propionylated NT(6–13) derivative 14] , what is its reported pKi?
8.82

Given the binder Pent4ynoyl-KPRRPYIL (neurotensin NT(6–13), printed in three-letter code; numbers count on: the mature neurotensin; also called peptide 7; source: synthetic peptide (SPPS, preparative HPLC)) [N^α-(Pent-4-ynoyl)-Lys-Pro-Arg-Arg-Pro-Tyr-Ile-Leu (7)] , what is its reported pKi?
9.27
